- TEST TARGET: human TLR9 (Homo sapiens, UniProt Q9NR96)
- Sequence (Q9NR96 26-1032): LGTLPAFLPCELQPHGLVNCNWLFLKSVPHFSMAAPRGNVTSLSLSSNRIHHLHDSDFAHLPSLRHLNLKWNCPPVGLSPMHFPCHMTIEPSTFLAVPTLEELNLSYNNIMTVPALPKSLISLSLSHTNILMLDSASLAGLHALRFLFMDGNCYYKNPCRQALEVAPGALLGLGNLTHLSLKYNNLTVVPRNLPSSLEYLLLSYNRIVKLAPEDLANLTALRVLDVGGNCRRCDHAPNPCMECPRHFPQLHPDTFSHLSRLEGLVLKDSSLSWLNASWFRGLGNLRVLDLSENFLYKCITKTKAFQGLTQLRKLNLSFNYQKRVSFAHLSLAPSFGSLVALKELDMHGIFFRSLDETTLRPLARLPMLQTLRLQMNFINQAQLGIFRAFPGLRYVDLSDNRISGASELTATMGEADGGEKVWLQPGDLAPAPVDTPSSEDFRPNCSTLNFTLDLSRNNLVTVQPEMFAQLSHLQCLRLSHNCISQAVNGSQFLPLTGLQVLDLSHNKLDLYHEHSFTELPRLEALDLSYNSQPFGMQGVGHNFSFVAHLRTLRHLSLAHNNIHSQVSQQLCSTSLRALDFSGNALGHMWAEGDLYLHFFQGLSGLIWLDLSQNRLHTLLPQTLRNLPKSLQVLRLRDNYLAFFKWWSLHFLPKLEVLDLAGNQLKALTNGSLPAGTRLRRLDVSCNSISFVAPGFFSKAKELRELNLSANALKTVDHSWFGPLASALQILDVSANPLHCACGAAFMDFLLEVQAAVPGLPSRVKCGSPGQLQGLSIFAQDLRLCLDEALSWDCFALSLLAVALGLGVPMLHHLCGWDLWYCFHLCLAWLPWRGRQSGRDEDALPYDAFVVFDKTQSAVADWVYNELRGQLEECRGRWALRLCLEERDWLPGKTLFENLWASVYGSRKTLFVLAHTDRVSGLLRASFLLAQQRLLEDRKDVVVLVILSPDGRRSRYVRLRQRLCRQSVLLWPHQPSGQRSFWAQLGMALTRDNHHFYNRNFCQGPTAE
- PROCEDURE SUMMARY: TLR9 inhibition reporter assay (HEK-Blue SEAP)
- PARTICULARS: HEK-Blue cells overexpressing human TLR9, ODN2006 5 nM, 22 hour incubation
pIC50: −log10 of the molar value.
EXPERIMENTAL READOUT: pIC50

query: Please list pIC50 recorded for the molecule COc1cc(-c2[nH]c3ccc(C4CCN(CCNC(=O)CCCCCCCCC(=O)NCCN5CCC(c6ccc7[nH]c(-c8cc(OC)c9ncnn9c8)c(C(C)C)c7c6)CC5)CC4)cc3c2C(C)C)cn2ncnc12 [Example 7]
result: 7.01

a = COc1cc(-c2[nH]c3ccc(C4CCN(CCNC(=O)CCCCCCCCCCCCC(=O)NCCN5CCC(c6ccc7[nH]c(-c8cc(OC)c9ncnn9c8)c(C(C)C)c7c6)CC5)CC4)cc3c2C(C)C)cn2ncnc12 [Example 2]
b = COc1cc(-c2[nH]c3ccc(C4CCN(CCNC(C)=O)CC4)cc3c2C(C)C)cn2ncnc12 [Comparator Compound C5, reference compound]
c = COc1cc(-c2[nH]c3ccc(C4CCN(CCN)CC4)cc3c2C(C)C)cn2ncnc12 [Comparator Compound C4, reference compound]
d = COc1cc(-c2[nH]c3ccc(C4CCN(CCNC(=O)CCCCC(=O)NCCN5CCC(c6ccc7[nH]c(-c8cc(OC)c9ncnn9c8)c(C(C)C)c7c6)CC5)CC4)cc3c2C(C)C)cn2ncnc12 [Example 9]
query: Ascending by pIC50, please. Return the labels ranked in the requested order, please.
result: b, c, d, a

====

- TEST TARGET: human TLR9 (Homo sapiens, UniProt Q9NR96)
- PROCEDURE SUMMARY: TLR9 inhibition reporter assay (HEK-Blue SEAP)
- PARTICULARS: HEK-Blue cells overexpressing human TLR9, ODN2006 5 nM, 22 hour incubation
pIC50: −log10 of the molar value.
EXPERIMENTAL READOUT: pIC50

query: Find the measured pIC50 of COc1cc(-c2[nH]c3ccc(C4CCN(CCNC(=O)CCCCCCCCCCCC(=O)NCCN5CCC(c6ccc7[nH]c(-c8cc(OC)c9ncnn9c8)c(C(C)C)c7c6)CC5)CC4)cc3c2C(C)C)cn2ncnc12 [Example 1] with human TLR9 (Homo sapiens, UniProt Q9NR96) as test system.
result: 6.92

query: System human TLR9 (Homo sapiens, UniProt Q9NR96). Read-out pIC50. Item COc1cc(-c2[nH]c3ccc(C4CCN(CCNC(=O)CCCCCCCCCC(=O)NCCN5CCC(c6ccc7[nH]c(-c8cc(OC)c9ncnn9c8)c(C(C)C)c7c6)CC5)CC4)cc3c2C(C)C)cn2ncnc12 [Example 4] . Report value.
result: 7.03

query: Please report pIC50 with human TLR9 (Homo sapiens, UniProt Q9NR96) for item COc1cc(-c2[nH]c3ccc(C4CCN(CCNC(=O)CCCCCCC(=O)NCCN5CCC(c6ccc7[nH]c(-c8cc(OC)c9ncnn9c8)c(C(C)C)c7c6)CC5)CC4)cc3c2C(C)C)cn2ncnc12 [Example 6] .
result: 6.83

query: Please respond with reported pIC50 (system human TLR9 (Homo sapiens, UniProt Q9NR96)) for COc1cc(-c2[nH]c3ccc(C4CCN(CCNC(=O)CCCCCCCC(=O)NCCN5CCC(c6ccc7[nH]c(-c8cc(OC)c9ncnn9c8)c(C(C)C)c7c6)CC5)CC4)cc3c2C(C)C)cn2ncnc12 [Example 5] .
result: 6.85

====

- TEST TARGET: human TLR7 (Homo sapiens)
- Sequence (Q9NYK1 27-1049): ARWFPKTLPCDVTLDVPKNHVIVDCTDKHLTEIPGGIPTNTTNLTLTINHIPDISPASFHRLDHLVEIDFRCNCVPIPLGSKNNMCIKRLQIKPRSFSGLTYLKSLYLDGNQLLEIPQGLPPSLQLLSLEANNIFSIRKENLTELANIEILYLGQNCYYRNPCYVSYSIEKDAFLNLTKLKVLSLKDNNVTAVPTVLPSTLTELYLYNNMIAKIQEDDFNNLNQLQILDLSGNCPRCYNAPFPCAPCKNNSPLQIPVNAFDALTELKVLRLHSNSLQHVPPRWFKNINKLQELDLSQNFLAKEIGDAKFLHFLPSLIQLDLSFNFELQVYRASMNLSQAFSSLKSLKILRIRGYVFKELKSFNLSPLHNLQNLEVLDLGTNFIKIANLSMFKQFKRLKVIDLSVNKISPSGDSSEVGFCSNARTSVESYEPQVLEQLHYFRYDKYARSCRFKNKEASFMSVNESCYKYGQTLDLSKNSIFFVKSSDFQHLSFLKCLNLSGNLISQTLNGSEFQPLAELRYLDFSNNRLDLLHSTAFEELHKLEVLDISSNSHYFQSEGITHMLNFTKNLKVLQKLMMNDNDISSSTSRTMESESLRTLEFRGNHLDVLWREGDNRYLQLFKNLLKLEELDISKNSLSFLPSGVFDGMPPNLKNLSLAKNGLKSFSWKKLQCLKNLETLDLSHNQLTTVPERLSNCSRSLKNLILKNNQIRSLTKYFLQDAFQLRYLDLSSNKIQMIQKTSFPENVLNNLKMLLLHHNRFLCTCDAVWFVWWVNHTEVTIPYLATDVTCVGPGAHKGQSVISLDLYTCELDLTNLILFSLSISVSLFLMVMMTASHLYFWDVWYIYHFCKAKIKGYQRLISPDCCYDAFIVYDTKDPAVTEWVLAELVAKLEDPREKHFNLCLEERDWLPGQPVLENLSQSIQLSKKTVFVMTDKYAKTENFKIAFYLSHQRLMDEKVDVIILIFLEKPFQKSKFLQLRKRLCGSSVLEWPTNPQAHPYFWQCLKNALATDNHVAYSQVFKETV
- PROCEDURE SUMMARY: TLR7 inhibition reporter assay (HEK-Blue SEAP)
- PARTICULARS: HEK-Blue cells overexpressing human TLR7, gardiquimod 7.5 μM, 22 hour incubation
EXPERIMENTAL READOUT: IC50 (nM)

1 = COc1cc(-c2[nH]c3ccc(C4CCN(CCNC(C)=O)CC4)cc3c2C(C)C)cn2ncnc12 [Comparator Compound C5, reference compound]
2 = COc1cc(-c2[nH]c3ccc(C4CCN(CCNC(=O)CCCCCCCC(=O)NCCN5CCC(c6ccc7[nH]c(-c8cc(OC)c9ncnn9c8)c(C(C)C)c7c6)CC5)CC4)cc3c2C(C)C)cn2ncnc12
query: Which record shows the lower IC50: the first, 1 , or the second, 2 ? Answer with the label corresponding to your selection.
result: 2

====

- TEST TARGET: human TLR7 (Homo sapiens)
- Sequence (Q9NYK1 27-1049): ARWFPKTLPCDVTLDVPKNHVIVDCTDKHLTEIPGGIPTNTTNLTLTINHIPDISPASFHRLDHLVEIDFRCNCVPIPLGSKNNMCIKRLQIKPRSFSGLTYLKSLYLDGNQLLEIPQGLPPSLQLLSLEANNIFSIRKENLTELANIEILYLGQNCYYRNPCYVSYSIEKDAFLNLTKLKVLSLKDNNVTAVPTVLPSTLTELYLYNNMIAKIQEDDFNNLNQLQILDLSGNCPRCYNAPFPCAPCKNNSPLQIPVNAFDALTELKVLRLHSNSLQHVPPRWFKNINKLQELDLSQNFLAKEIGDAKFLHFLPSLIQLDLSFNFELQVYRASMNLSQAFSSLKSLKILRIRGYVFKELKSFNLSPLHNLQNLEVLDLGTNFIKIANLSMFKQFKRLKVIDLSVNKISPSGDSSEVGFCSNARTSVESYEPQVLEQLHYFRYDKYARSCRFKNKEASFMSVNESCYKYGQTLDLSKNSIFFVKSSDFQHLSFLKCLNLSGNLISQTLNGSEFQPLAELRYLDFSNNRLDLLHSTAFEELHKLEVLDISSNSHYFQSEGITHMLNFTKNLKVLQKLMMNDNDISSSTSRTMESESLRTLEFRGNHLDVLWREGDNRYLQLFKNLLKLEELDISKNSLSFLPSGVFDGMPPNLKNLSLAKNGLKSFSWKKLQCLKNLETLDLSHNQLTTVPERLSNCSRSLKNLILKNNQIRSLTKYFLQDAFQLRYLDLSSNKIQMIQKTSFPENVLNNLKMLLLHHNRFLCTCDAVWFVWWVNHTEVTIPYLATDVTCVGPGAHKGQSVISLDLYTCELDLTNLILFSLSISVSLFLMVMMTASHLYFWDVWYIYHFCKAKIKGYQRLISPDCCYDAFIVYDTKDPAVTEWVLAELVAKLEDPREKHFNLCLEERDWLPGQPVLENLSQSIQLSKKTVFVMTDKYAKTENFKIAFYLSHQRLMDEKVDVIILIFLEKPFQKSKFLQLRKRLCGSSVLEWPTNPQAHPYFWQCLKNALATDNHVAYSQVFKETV
- PROCEDURE SUMMARY: TLR7 inhibition reporter assay (HEK-Blue SEAP)
- PARTICULARS: HEK-Blue cells overexpressing human TLR7, gardiquimod 7.5 μM, 22 hour incubation
- Text: TLR7/8/9 Inhibition Reporter Assays HEK-Blue™-cells (Invivogen) overexpressing human TLR7, TLR8 or TLR9 receptors were used for screening inhibitors of these receptors using an inducible SEAP (secreted embryonic alkaline phosphatase) reporter gene under the control of the IFN-β minimal promoter fused to five NF-κB and AP-1-binding sites. […]
EXPERIMENTAL READOUT: IC50 (nM)

1 = COc1cc(-c2[nH]c3ccc(C4CCN(CCNC(=O)CCCCCCCCCCCC(=O)NCCN5CCC(c6ccc7[nH]c(-c8cc(OC)c9ncnn9c8)c(C(C)C)c7c6)CC5)CC4)cc3c2C(C)C)cn2ncnc12 [Example 1]
2 = COc1cc(-c2[nH]c3ccc(C4CCN(CCNC(=O)CCCCCCCCCC(=O)NCCN5CCC(c6ccc7[nH]c(-c8cc(OC)c9ncnn9c8)c(C(C)C)c7c6)CC5)CC4)cc3c2C(C)C)cn2ncnc12 [Example 4]
3 = COc1cc(-c2[nH]c3ccc(C4CCN(CCCCCCCCCCCCCCCCCCN5CCC(c6ccc7[nH]c(-c8cc(OC)c9ncnn9c8)c(C(C)C)c7c6)CC5)CC4)cc3c2C(C)C)cn2ncnc12 [Example 12]
query: Rank order required: IC50, descending. List labels; respect the requested ordering.
result: 3, 1, 2
